As shown below, each of these molecules has a reported activity change value.
# study.system: Inositol hexakisphosphate kinase 1 (Homo sapiens) (UniProt Q92551)
# Sequence (Q92551 whole entry, looked up): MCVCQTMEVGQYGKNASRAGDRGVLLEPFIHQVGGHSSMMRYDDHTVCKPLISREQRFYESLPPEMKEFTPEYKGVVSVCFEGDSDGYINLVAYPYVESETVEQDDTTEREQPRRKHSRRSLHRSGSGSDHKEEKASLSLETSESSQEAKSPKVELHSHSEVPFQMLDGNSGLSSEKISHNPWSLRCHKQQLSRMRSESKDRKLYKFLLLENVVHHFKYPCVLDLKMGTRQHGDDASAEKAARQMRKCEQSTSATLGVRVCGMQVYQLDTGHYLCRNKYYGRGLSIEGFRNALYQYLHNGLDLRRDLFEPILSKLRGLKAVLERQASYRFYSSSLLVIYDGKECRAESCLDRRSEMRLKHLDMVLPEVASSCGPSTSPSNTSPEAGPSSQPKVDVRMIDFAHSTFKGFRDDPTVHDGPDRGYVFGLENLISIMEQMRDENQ
# protocol: Primary qHTS assay for small molecule inhibitors of Inositol hexaphosphate kinase 1 (IP6K1); note: series mostly up to about 58 µM; % is set by controls: 0 for no effect and ±100 for the full control effect
# assay.setup: ADP-Glo luminescence, 2 h, active compounds read low
In all, about 140,000 compounds went through this assay and about 1,200 (0.86%) were called active. The sample holds actives, similar compounds and a random draw of the others, so the mix is not that of the screen.
# output: bare number, implied unit %

Here's what some known entries look like.
Exam item: Can you look up activity change on Inositol hexakisphosphate kinase 1 (Homo sapiens) (UniProt Q92551) for CCOC(=O)c1cc2c(=O)n3ccccc3nc2n(CC2CCCO2)c1=NC(=O)c1ccc(C(C)(C)C)cc1 (centres undefined) ?
Marked response: -2.99

Exam item: Can you look up activity change on Inositol hexakisphosphate kinase 1 (Homo sapiens) (UniProt Q92551) for `COc1ccc(-c2onc(C)c2C)cc1S(=O)(=O)NCCc1ccccc1` ?
Marked response: 17.3

Exam item: Can you look up activity change on Inositol hexakisphosphate kinase 1 (Homo sapiens) (UniProt Q92551) for `Cn1cc(C(=O)N2CCC(C(=O)N3CCCCCCNC(=O)CC3)CC2)cn1` ?
Marked response: -7.37

Exam item: Can you look up activity change on Inositol hexakisphosphate kinase 1 (Homo sapiens) (UniProt Q92551) for `COc1ccc(-c2nn(CC(=O)NC3CCCC3)c3c2cnc2ccc(F)cc23)cc1` ?
Marked response: 19.4

Exam item: Can you look up activity change on Inositol hexakisphosphate kinase 1 (Homo sapiens) (UniProt Q92551) for `Cn1ncc2c(C(=O)NCc3ccc(Cl)cc3)cc(-c3ccc(F)cc3)nc21` ?
Marked response: 11.6

Exam item: Can you look up activity change on Inositol hexakisphosphate kinase 1 (Homo sapiens) (UniProt Q92551) for O=C(C1CCCN(C(=O)C2CC2)C1)N1CCC(N2CCCC2=O)CC1 (centres undefined) ?
Marked response: -0.186

Exam item: Can you look up activity change on Inositol hexakisphosphate kinase 1 (Homo sapiens) (UniProt Q92551) for `Cc1ccc(C2(O)CCN(c3nccc(CCC(F)(F)F)n3)CC2)nc1` ?
Marked response: -3.3

Exam item: Can you look up activity change on Inositol hexakisphosphate kinase 1 (Homo sapiens) (UniProt Q92551) for `Cc1ccc(-c2ccc3nnc(CNC(=O)c4ccccn4)n3n2)cc1` ?
Marked response: -2.05

More entries:
Exam item: Can you look up activity change on Inositol hexakisphosphate kinase 1 (Homo sapiens) (UniProt Q92551) for `O=S(=O)(N[C@@H]1CCOC[C@H]1Oc1ccccn1)c1ccc(Cl)s1` ?
Marked response: -5.56

Exam item: Can you look up activity change on Inositol hexakisphosphate kinase 1 (Homo sapiens) (UniProt Q92551) for `CCOC(=O)[C@@H]1[C@@H](O)C(=O)N(Cc2ccccc2)C12CCN(C(=O)c1cc3ccccc3s1)CC2` ?
Marked response: 14.8

Exam item: Can you look up activity change on Inositol hexakisphosphate kinase 1 (Homo sapiens) (UniProt Q92551) for `COc1ccc(Cn2c(=O)c(C(=O)N3CCN([S+](=O)([O-])c4c(C)noc4C)CC3)nc3cccnc32)cc1` ?
Marked response: 10.5

Exam item: Can you look up activity change on Inositol hexakisphosphate kinase 1 (Homo sapiens) (UniProt Q92551) for `COc1ccc(-c2nn(CC(=O)Nc3ccccc3F)c3c2cnc2ccc(F)cc23)cc1` ?
Marked response: 6.83

Exam item: Can you look up activity change on Inositol hexakisphosphate kinase 1 (Homo sapiens) (UniProt Q92551) for `O=Cc1cccc(-c2cc(F)cc(F)c2)c1` ?
Marked response: -5.81

Exam item: Can you look up activity change on Inositol hexakisphosphate kinase 1 (Homo sapiens) (UniProt Q92551) for `CC(=O)Nc1ccc(S(=O)(=O)N[C@H]2CO[C@H]3[C@@H]2OC[C@@H]3n2nnnc2-c2ccc(N(C)C)cc2)cc1` ?
Marked response: 2.63
